Target protein (sequence): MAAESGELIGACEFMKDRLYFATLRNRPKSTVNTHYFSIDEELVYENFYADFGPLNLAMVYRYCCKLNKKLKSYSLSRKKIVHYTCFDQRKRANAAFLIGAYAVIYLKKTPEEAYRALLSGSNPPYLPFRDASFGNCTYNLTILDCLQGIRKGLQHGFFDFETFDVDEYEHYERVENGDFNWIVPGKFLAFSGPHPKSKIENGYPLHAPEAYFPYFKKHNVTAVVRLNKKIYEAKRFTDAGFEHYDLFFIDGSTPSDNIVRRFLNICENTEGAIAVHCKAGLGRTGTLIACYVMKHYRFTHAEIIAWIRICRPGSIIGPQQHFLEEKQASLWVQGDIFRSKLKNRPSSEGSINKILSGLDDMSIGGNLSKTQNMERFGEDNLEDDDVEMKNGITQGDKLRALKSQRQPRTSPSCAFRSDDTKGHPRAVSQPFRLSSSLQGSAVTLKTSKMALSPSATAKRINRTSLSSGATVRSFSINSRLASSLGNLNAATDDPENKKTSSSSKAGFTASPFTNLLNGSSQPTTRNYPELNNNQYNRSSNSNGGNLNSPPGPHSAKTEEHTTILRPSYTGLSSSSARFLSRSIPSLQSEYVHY
QUANTITY KIND: IC50

The molecule O=C(Nc1ccc(I)cc1)C(=O)Nc1ccc(NC(=O)C(c2ccccc2)S(=O)(=O)O)cc1 (stereo unspecified) showed IC50 equal to > 50 µM
